- Test system: MDA-MB-468 complex spheroids with HUVEC/MSC, viability
- testName: Anticancer human tumor MDA-MB-468 cell line growth inhibition;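 note: spheroids exposed to agents for seven days; 100% = DMSO vehicle control viability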
- measurementContext: second compound 10 µM; first compound 10 µM; hits give low values
testReadout: viability, T/C (%)
Give bare numbers, in %.

Would you kindly share the measured viability, T/C for CC1COCCN1c1cc(C2(S(C)(=N)=O)CC2)nc(-c2ccnc3[nH]ccc23)n1 (configuration not stated) + NC1CCC(NC2CC2c2ccccc2)CC1 ?
8.95

What value of viability, T/C has been recorded for this entry: CC(C)c1c(-c2ccccc2)nc2c(C#N)c[nH]n2c1=O + NC1CC1c1ccc(-c2cccc(O)c2)cc1
49.4

Fill blank: measured viability, T/C of the molecule COc1ccc([C@@H](O)c2cc(-c3ncnc4cc(N5CCOCC5)ccc34)c(F)cc2Cl)nn1 + NC1CCC(NC2CC2c2ccccc2)CC1 is ____.
12.7

Form field: reported viability, T/C of O=C(c1cc(Cc2n[nH]c(=O)c3ccccc23)ccc1F)N1CCN(C(=O)C2CC2)CC1 + NC1CCC(NC2CC2c2ccccc2)CC1
18.6

Form field: reported viability, T/C of CC1(C)CCC(CN2CCN(c3ccc(C(=O)NS(=O)(=O)c4ccc(NCC5CCOCC5)c([N+](=O)[O-])c4)c(Oc4cnc5[nH]ccc5c4)c3)CC2)=C(c2ccc(Cl)cc2)C1 + NC1CCC(NC2CC2c2ccccc2)CC1
27.8

Batch lookup, viability, T/C per entry.
1. O=C(c1cc(Cc2n[nH]c(=O)c3ccccc23)ccc1F)N1CCN(C(=O)C2CC2)CC1 + NC1CC1c1ccc(-c2cccc(O)c2)cc1
2. COc1ccc([C@@H](O)c2cc(-c3ncnc4cc(N5CCOCC5)ccc34)c(F)cc2Cl)nn1 + NC1CC1c1ccc(-c2cccc(O)c2)cc1

8.66
2.86
